assayed_target: mutant HIV reverse transcriptases (Human immunodeficiency virus type 1, UniProt P12497, Y768C, cells depend on it)
I'd appreciate it if you could supply EC50 values for the items below.

# molecule, EC50
data = [
    ("Cc1cc(S(N)(=O)=O)ccc1NC(=O)CSc1nnc(C(F)F)n1-c1ccc(C)c2c1CCCC2 [compound 48]", "< 50 nM"),
    ("NS(=O)(=O)c1ccc(NC(=O)CSc2nnc(C(F)F)n2-c2ccc(C3CCC3)c3ccccc23)c(Cl)c1 [compound 69]", "< 50 nM"),
    ("CCc1ccc(-n2c(Br)nnc2SCC(=O)Nc2ccc(C(=O)NCC(OC)OC)cc2Cl)c2ccccc12 [compound 118]", "< 50 nM"),
]

Dear colleague, could you send me EC50 for each of the items below? Thanks.
1. Cc1cc(C)c2ccccc2c1-n1c(SCC(=O)Nc2ccc(S(N)(=O)=O)cc2Cl)nnc1C(F)(F)F [compound 84]
2. COc1ccc2cccc(-n3c(Br)nnc3SCC(=O)Nc3ccc(C(=O)O)cc3Cl)c2c1 [compound 13]
3. CCc1ccc(-n2c(Br)nnc2SCC(=O)Nc2ccc(C(=O)NCC3CCCO3)cc2Cl)c2ccccc12 (stereo not shown) [compound 125]
4. Cc1cc(S(N)(=O)=O)ccc1NC(=O)CSc1nnc(Br)n1-c1ccc2c3c(cccc13)CC2 [compound 38]

### Response
["< 50 nM", "< 50 nM", "< 50 nM", "< 50 nM"]

These measurements were taken from patent US8946273B2.
